Reference source: patent US7612089B2

Provide the recorded IC50 for the entries that follow.
target: human plasma protein factor Xa (Homo sapiens); construct: The human plasma protein factor Xa was purchased; assay: Factor Xa IC50 determination (cleavage of paranitroanilide substrate S-2765); settings: fXa 1 nM, S2765 100 μM, Tris buffered saline pH 7.4, room temperature

molecule	IC50
CN(C)Cc1nccn1-c1ccc(NC(=O)C2Cc3ccccc3CN2C(=O)Nc2ccc(Cl)cc2)c(F)c1 (centres unmarked)	≤ 0.1 µM
O=C(Nc1ccc(-n2ccccc2=O)cc1)[C@@H]1Cc2ccccc2CN1C(=O)Nc1ccc(Cl)cc1	≤ 0.1 µM
O=C(Nc1ccc(C(=O)N2CCCC2)cc1)C1Cc2ccccc2CN1C(=O)Nc1ccc(Cl)cc1 (centres unmarked)	≤ 0.1 µM
CN1CCN=C1c1ccc(NC(=O)[C@H]2Cc3ccccc3CN2C(=O)Nc2ccc(Cl)cc2)cc1 [3(R)]	≤ 0.1 µM
O=C(Nc1ccc(N2CCOCC2=O)cc1)C1c2ccccc2CN1C(=O)Nc1ccc(Cl)cc1 (centres unmarked)	≤ 0.1 µM

Parameter requested: IC50. Apply to each item below.
1. O=C(Nc1ccc(-n2ccccc2=O)cc1F)[C@H]1Cc2ccccc2CN1C(=O)Nc1ccc(Cl)cc1
2. O=C(Nc1ccc(C(=O)N2CCOC2)cc1)C1Cc2ccccc2CN1C(=O)Nc1ccc(Cl)cc1 (centres unmarked)
3. N=C(c1ccc(NC(=O)C2Cc3ccccc3CN2C(=O)Nc2ccc(Cl)cc2)cc1)N1CCCC1 (centres unmarked)

["≤ 0.1 µM", "≤ 0.1 µM", "≤ 0.1 µM"]

----------
Provide the recorded IC50 for the entries that follow.
biological target: human plasma protein factor Xa (Homo sapiens, UniProt P00742); construct: The human plasma protein factor Xa was purchased; assay: Factor Xa IC50 determination (cleavage of paranitroanilide substrate S-2765); conditions: fXa 1 nM, S2765 100 μM, Tris buffered saline pH 7.4, room temperature
Sequence (P00742 235-488 limits assumed): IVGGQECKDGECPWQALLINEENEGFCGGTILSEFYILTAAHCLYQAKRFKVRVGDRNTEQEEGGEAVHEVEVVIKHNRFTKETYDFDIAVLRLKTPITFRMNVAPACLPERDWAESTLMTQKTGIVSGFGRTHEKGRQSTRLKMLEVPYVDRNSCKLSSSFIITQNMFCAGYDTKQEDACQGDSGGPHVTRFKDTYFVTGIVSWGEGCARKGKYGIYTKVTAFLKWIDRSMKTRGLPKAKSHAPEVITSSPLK
Sequence (P00742 41-179 partner limits assumed): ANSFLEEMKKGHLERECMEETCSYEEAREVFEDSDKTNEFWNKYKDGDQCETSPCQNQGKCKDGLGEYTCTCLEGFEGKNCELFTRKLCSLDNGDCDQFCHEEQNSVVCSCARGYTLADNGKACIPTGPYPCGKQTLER

Consider the following illustrative entries.
compound	observed_property	result
CN1CCCN(c2ccc(NC(=O)C3c4ccccc4CN3C(=O)Nc3ccc(Cl)cc3)cc2)CC1 (centres unmarked) [Example 30]	IC50	0.1 to 0.5 µM
CN(C)C(=N)c1cccc(CNC(=O)C2Cc3ccccc3CN2C(=O)Nc2ccc(Cl)cc2)c1 (centres unmarked) [Example 6]	IC50	≥ 0.5 µM
O=C(Nc1ccc(-n2ccccc2=O)cc1)[C@H]1Cc2ccccc2CN1C(=O)Nc1ccc(Cl)s1 [Example 48]	IC50	≤ 0.1 µM
O=C(Nc1ccc(C(=O)N2CCSC2)cc1)C1Cc2ccccc2CN1C(=O)Nc1ccc(Cl)cc1 (centres unmarked) [Example 15]	IC50	≤ 0.1 µM
Cc1cccc2c1CC(C(=O)Nc1ccc(C(=N)N3CCCC3)cc1)N(C(=O)Nc1ccc(Cl)cc1)C2 (centres unmarked) [Example 19]	IC50	≤ 0.1 µM

Parameter requested: IC50. Apply to each item below.
1. O=C(NCC1CCN(c2ccncc2)CC1)C1Cc2ccccc2CN1C(=O)Nc1ccc(Cl)cc1 (centres unmarked) [Example 9]
2. CC(C)N1CCC(NC(=O)C2Cc3ccccc3CN2C(=O)Nc2ccc(Cl)cc2)CC1 (centres unmarked) [Example 12]
3. CN1CCCN(c2ccc(NC(=O)[C@H]3Cc4ccccc4CN3C(=O)Nc3ccc(Cl)cc3)c(F)c2)CC1 [Example 35]

["0.1 to 0.5 µM", "≥ 0.5 µM", "≤ 0.1 µM"]

----------
target: human plasma protein factor Xa (Homo sapiens, UniProt P00742); construct: The human plasma protein factor Xa was purchased; assay: Factor Xa IC50 determination (cleavage of paranitroanilide substrate S-2765); conditions: fXa 1 nM, S2765 100 μM, Tris buffered saline pH 7.4, room temperature
Provide the recorded IC50 for the entries that follow.

compound	IC50
O=C(Nc1ccc(-c2cccc[n+]2[O-])cc1)C1Cc2ccccc2N1C(=O)Nc1ccc(Cl)cc1 (stereo not drawn) [Example 32]	100 to 500 nM
O=C([C@H]1Cc2ccccc2CN1C(=O)Nc1ccc(Cl)cc1)N1CCC(N2CCOCC2=O)CC1 [Example 44]	≤ 100 nM
O=C(Nc1ccc(-c2cccc[n+]2[O-])cc1)C1c2ccccc2CN1C(=O)Nc1ccc(Cl)cc1 (stereo not drawn) [Example 29]	≤ 100 nM
CN1CCN=C1c1ccc(NC(=O)C2Cc3sccc3CN2C(=O)Nc2ccc(Cl)cc2)cc1 (stereo not drawn) [Example 25]	≤ 100 nM
CN1CCC(N2CCN(C(=O)C3Cc4ccccc4CN3C(=O)Nc3ccc(Cl)cc3)CC2)CC1 (stereo not drawn) [Example 11]	≤ 100 nM
CN1CCN=C1c1ccc(NC(=O)C2Cc3cc(O)ccc3CN2C(=O)Nc2ccc(Cl)cc2)cc1 (stereo not drawn) [Example 24]	≤ 100 nM
CN1CCN=C1c1cccc(CNC(=O)C2Cc3ccccc3CN2C(=O)Nc2ccc(Cl)cc2)c1 (stereo not drawn) [Example 7]	≥ 500 nM
CN1CCCN(c2ccc(NC(=O)[C@H]3Cc4ccccc4CN3C(=O)Nc3ccc(Cl)cc3)cc2)CC1 [Example 33]	≤ 100 nM
O=C([C@H]1Cc2ccccc2CN1C(=O)Nc1ccc(Cl)cc1)N1CCC(n2ccccc2=O)CC1 [Example 43]	≤ 100 nM
O=C(Nc1ccc(-n2ccccc2=O)cc1)[C@H]1Cc2ccccc2CN1C(=O)Nc1ccc(Cl)cc1 [Example 36]	≤ 100 nM

Parameter requested: IC50. Apply to each item below.
1. CN1CCCN(c2ccc(NC(=O)C3Cc4cc(O)ccc4CN3C(=O)Nc3ccc(Cl)cc3)cc2)CC1 (stereo not drawn) [Example 40]
2. CN1CCCN(c2ccc(NC(=O)[C@H]3Cc4ccccc4CN3C(=O)Nc3ccc(Cl)s3)cc2)CC1 [Example 49]
3. COc1cc2c(cc1OC)CN(C(=O)Nc1ccc(Cl)cc1)[C@H](C(=O)Nc1ccc(C(=N)N(C)C)cc1)C2 [Example 23]
4. Cc1cccc2c1CC(C(=O)Nc1ccc(C3=NCCN3C)cc1)N(C(=O)Nc1ccc(Cl)cc1)C2 (stereo not drawn) [Example 18]
5. CN1CCN(c2ccc(NC(=O)[C@H]3Cc4ccccc4CN3C(=O)Nc3ccc(Cl)cc3)cc2)C(=O)C1 [Example 45]

1. ≤ 100 nM
2. ≤ 100 nM
3. ≥ 500 nM
4. ≤ 100 nM
5. 100 to 500 nM
